- Tested system: HLA-B*15:01
- Measurement protocol: IEDB peptide-MHC binding, purified MHC/direct/fluorescence; filed as Kd, often an IC50 or EC50 that approximates it; bounds were set here for any values at or beyond the usual limits of such assays
- Settings: source organism: Vibrio vulnificus
Reported property: Kd (nM)
Give just the number in nM; leave the unit off.

Could you please provide reported Kd for IQTHCEVGY ? Thanks!
285

* * *

- Tested system: HLA-B*48:01
- Measurement protocol: IEDB peptide-MHC binding, purified MHC/direct/fluorescence; filed as Kd, often an IC50 or EC50 that approximates it; bounds were set here for any values at or beyond the usual limits of such assays
- Settings: source organism: Influenza A virus (A/swine/Chiai/77-10/2001(H3N1))
pKd: −log10 of the molar value.
Reported property: pKd

Could you please provide reported pKd for VSFDQNLDY ? Thanks!
≤ 4.70

* * *

- Tested system: HLA-B*46:01
- Measurement protocol: IEDB peptide-MHC binding, purified MHC/direct/fluorescence; filed as Kd, often an IC50 or EC50 that approximates it; bounds were set here for any values at or beyond the usual limits of such assays
- Settings: source organism: Camelpox virus M-96
pKd: −log10 of the molar value.
Reported property: pKd

Could you please provide reported pKd for FVFEATKLY ? Thanks!
≤ 4.70

* * *

- Tested system: HLA-B*53:01
- Measurement protocol: IEDB peptide-MHC binding, purified MHC/competitive/radioactivity; filed as Kd, often an IC50 or EC50 that approximates it; bounds were set here for any values at or beyond the usual limits of such assays
- Settings: source organism: Dengue virus 2 Jamaica/1409/1983
pKd values, listed per item
Note: pKd values are expressed as the negative base-10 logarithm of concentration in M.

LALKEFKEF; 5.74

# ---- query sequence ----
Could you please provide reported pKd for EAVEDSRFW ? Thanks!
7.89

* * *

- Tested system: HLA-B*44:02
- Measurement protocol: IEDB peptide-MHC binding, purified MHC/competitive/radioactivity; filed as Kd, often an IC50 or EC50 that approximates it; bounds were set here for any values at or beyond the usual limits of such assays
- Settings: source organism: Mammarenavirus choriomeningitidis
Reported property: pKd
Note: pKd values are expressed as the negative base-10 logarithm of concentration in M.

Could you please provide reported pKd for SDAALHNMI ? Thanks!
5.15

* * *

- Tested system: HLA-B*58:01
- Measurement protocol: IEDB peptide-MHC binding, purified MHC/competitive/radioactivity; filed as Kd, often an IC50 or EC50 that approximates it; bounds were set here for any values at or beyond the usual limits of such assays
- Settings: source organism: Dengue virus 3 Sri Lanka/1266/2000
Reported property: Kd (nM)
Give just the number in nM; leave the unit off.

Give reported Kd for KAAVEDEEFW (HLA-B*58:01)
11.4

* * *

- Tested system: HLA-B*58:01
- Measurement protocol: IEDB peptide-MHC binding, purified MHC/direct/fluorescence; filed as Kd, often an IC50 or EC50 that approximates it; bounds were set here for any values at or beyond the usual limits of such assays
- Settings: source organism: Rickettsia prowazekii
Reported property: Kd

Could you please provide reported Kd for STYGISEDL ? Thanks!
≥ 20 µM

* * *

- Tested system: HLA-A*31:01
- Measurement protocol: IEDB peptide-MHC binding, purified MHC/competitive/fluorescence; bounds were set here for any values at or beyond the usual limits of such assays
- Settings: source organism: Mus musculus
pIC50: −log10 of the molar value.
Reported property: pIC50

Could you please provide reported pIC50 for VALFSSCPVAY ? Thanks!
≤ 4.70
